# assay notes: Metabolic stability in mouse liver microsomes assessed as intrinsic clearance
# Assay type: ADME, Microsome
# test context: read-out: CLH
Below: a set of entries, each annotated with reported microsomal CLint.
Field: numeric (µL/min/mg). Do not append units.

These recorded examples may help you get a feel for the data.
{"compound": "CC[C@@H](C(=O)Nc1ccc(Cl)cc1)N1CCC2(CC1)COc1cc(C(F)(F)F)ccc12 (stereo in doubt)", "quantity unit": "µL/min/mg", "microsomal CLint": 53}
{"compound": "C[C@H](C(=O)Nc1ccc(Cl)cc1)[C@H]1CC[C@]2(CC1)COc1nc(C(F)(F)F)ccc12", "quantity unit": "µL/min/mg", "microsomal CLint": 3.5}

Form: compound = CC(C(=O)Nc1ccc(Cl)cc1)C1CCC2(CC1)c1ccc(C(F)(F)F)cc1CN2C (stereo not given) ; microsomal CLint = 9.5

Please fill in: microsomal CLint reported for C[C@H](C(=O)Nc1ccc(Cl)cc1)[C@H]1CC[C@@]2(CC1)COc1cc(C(F)(F)F)ccc12 = 193

----------
# tested on: Indoleamine 2,3-dioxygenase 1 (Homo sapiens)
# Sequence (P14902 whole entry): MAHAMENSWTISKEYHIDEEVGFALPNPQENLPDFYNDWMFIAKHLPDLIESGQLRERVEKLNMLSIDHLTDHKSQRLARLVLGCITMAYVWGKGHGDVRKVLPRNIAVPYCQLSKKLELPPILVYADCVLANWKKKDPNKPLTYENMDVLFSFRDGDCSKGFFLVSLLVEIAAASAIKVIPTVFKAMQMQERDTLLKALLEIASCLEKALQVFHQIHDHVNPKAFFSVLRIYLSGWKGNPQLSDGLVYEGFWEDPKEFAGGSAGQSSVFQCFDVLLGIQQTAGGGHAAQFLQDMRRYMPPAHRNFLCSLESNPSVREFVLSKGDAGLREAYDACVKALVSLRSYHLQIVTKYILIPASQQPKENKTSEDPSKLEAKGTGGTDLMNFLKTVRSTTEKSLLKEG
# assay notes: Inhibition of IDO1 in human SKOV3 cells
# Assay type: cell-based, SK-OV-3
value type: pIC50
# log scale: pIC50 equals minus log10 of the concentration in mol/L

{"compound": "CC(C(=O)Nc1ccc(Cl)cc1)N1CCC2(CCc3ccccc32)CC1 (racemic)", "tested on": "Indoleamine 2,3-dioxygenase 1 (Homo sapiens)", "pIC50": 7.41}
{"compound": "CC[C@@H](C(=O)Nc1ccc(Cl)cc1)N1CCC2(CC1)COc1cc(C(F)(F)F)ccc12 (stereo in doubt)", "tested on": "Indoleamine 2,3-dioxygenase 1 (Homo sapiens)", "pIC50": 7.92}
{"compound": "C[C@@H](C(=O)Nc1ccc(Cl)cc1)[C@H]1CC[C@@]2(CC1)COc1cc(C(F)(F)F)ccc12", "tested on": "Indoleamine 2,3-dioxygenase 1 (Homo sapiens)", "pIC50": 8.18}
{"compound": "CC[C@H](C(=O)Nc1ccc(Cl)cc1)N1CCC2(CC1)COc1cc(C(F)(F)F)ccc12 (stereo in doubt)", "tested on": "Indoleamine 2,3-dioxygenase 1 (Homo sapiens)", "pIC50": 6.96}
{"compound": "CC(C(=O)Nc1ccc(Cl)cc1)C1CCC2(CC1)c1ccc(C(F)(F)F)cc1CN2C (configuration not stated)", "tested on": "Indoleamine 2,3-dioxygenase 1 (Homo sapiens)", "pIC50": 8.08}
{"compound": "CC[C@H](C(=O)Nc1ccc(Cl)cn1)[C@H]1CC[C@]2(CC1)COc1cc(C(F)(F)F)ccc12", "tested on": "Indoleamine 2,3-dioxygenase 1 (Homo sapiens)", "pIC50": 8.15}

The measured pIC50 associated with C[C@@H](C(=O)Nc1ccc(Cl)cc1)[C@H]1CC[C@]2(CC1)COc1cc(C(F)(F)F)ccc12 reads 7.16

----------
# assay notes: Metabolic stability in human liver microsomes assessed as intrinsic clearance
# Assay type: ADME, Microsome
# test context: read-out: CLH
value type: log10 microsomal CLint (log10 of the value in µL/min/mg)
Please be aware that the numbers have been log10-transformed from microsomal CLint in µL/min/mg.

Completed entries (count: 4):
{"molecule": "C[C@H](C(=O)Nc1ccc(Cl)cc1)[C@H]1CC[C@@]2(CC1)COc1cc(C(F)(F)F)ccc12", "log10 microsomal CLint": 1.83}
{"molecule": "C[C@@H](C(=O)Nc1ccc(Cl)cc1)[C@H]1CC[C@@]2(CC1)COc1cc(C(F)(F)F)ccc12", "log10 microsomal CLint": 1.63}
{"molecule": "CC(C(=O)Nc1ccc(Cl)cc1)C1CCC2(CC1)c1ccc(C(F)(F)F)cc1CN2C (stereo unspecified)", "log10 microsomal CLint": 0.15}
{"molecule": "C[C@H](C(=O)Nc1ccc(Cl)cc1)[C@H]1CC[C@]2(CC1)COc1nc(C(F)(F)F)ccc12", "log10 microsomal CLint": 0.20}

# context switch: different molecule, same log10 microsomal CLint
Summary for this molecule, O=C(Nc1ccc(Cl)cc1)C(CC1CC1)N1CCC2(CC1)COc1cc(C(F)(F)F)ccc12 (stereo unspecified) : log10 microsomal CLint is 1.11

----------
The following compounds are shown together with reported IC50 values.
# tested on: Tryptophan 2,3-dioxygenase (Homo sapiens)
# Sequence (P48775 whole entry): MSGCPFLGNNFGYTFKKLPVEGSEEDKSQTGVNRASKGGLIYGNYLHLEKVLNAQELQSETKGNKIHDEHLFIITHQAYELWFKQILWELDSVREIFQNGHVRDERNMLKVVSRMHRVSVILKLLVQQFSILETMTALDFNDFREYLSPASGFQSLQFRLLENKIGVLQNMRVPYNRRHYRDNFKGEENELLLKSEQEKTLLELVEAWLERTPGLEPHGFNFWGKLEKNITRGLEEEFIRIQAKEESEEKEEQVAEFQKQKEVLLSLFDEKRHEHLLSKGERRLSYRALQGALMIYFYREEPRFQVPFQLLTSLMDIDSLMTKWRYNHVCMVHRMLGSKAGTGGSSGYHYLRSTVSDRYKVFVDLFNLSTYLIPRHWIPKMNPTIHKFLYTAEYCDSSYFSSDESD
# assay notes: Inhibition of TDO in HEK cells
Answer in µM, number only, no unit symbol.

Item CCC(C(=O)Nc1ccc(Cl)cc1)N1CCC2(CCOc3cc(C(F)(F)F)ccc32)CC1 (centres undefined) ; assay system Tryptophan 2,3-dioxygenase (Homo sapiens); IC50 reported as 11.8

Lab entry: Tryptophan 2,3-dioxygenase (Homo sapiens) assay, compound C[C@@H](C(=O)Nc1ccc(Cl)cc1)[C@H]1CC[C@@]2(CC1)COc1cc(C(F)(F)F)ccc12 , IC50 = 10.3

Tested system Tryptophan 2,3-dioxygenase (Homo sapiens); IC50 recorded for C[C@@H](C(=O)Nc1ccc(Cl)cc1)[C@H]1CC[C@]2(CC1)COc1cc(C(F)(F)F)ccc12 was 10.5

Given the compound C[C@H](C(=O)Nc1ccc(Cl)cc1)[C@H]1CC[C@@]2(CC1)COc1cc(C(F)(F)F)ccc12 and test system Tryptophan 2,3-dioxygenase (Homo sapiens), the measured IC50 is 7.8
